Kindly supply the reported melting point values for the records listed here.
Counter-ions that a name gives are not always drawn.

IN: Would you kindly share the measured melting point for COc1ccc(CN2CCOCC2)c(OC)c1-c1ccc(C[C@H](NC(=O)c2c(Cl)cccc2Cl)C(=O)O)cc1 [Example 319] ?
OUT: 241 to 242 °C

IN: Quick one: melting point of CCNC(=S)Nc1ccc(C(=O)N[C@@H](Cc2ccc(-c3ccccc3OC)cc2)C(=O)O)c(Cl)c1 [Example 196] ?
OUT: 155 to 156 °C

IN: melting point for COc1ccc(C(N)=O)c(OC)c1-c1ccc(C[C@H](NC(=O)c2c(Cl)cc(NC(N)=O)cc2Cl)C(=O)O)cc1 [Example 205] ?
OUT: 217 to 219 °C

IN: Tell me the measured melting point of CNC(=O)c1cc(OC)c(-c2ccc(C[C@H](NC(=O)c3c(Cl)cccc3Cl)C(=O)O)cc2)c(OC)c1 [Example 165] , please.
OUT: 251 to 252 °C

IN: Requested read-out: melting point. Entry: COc1cccc(OC)c1-c1ccc(C[C@H](NC(=O)c2c(Cl)cc(-c3ccccc3)cc2Cl)C(=O)O)cc1 [Example 301]
OUT: 215 °C

IN: Looking for the measured melting point of N#CCOc1cccc(OCC#N)c1-c1ccc(C[C@H](NC(=O)c2c(Cl)cccc2Cl)C(=O)O)cc1 [Example 231] , can you help?
OUT: 175 to 176 °C

IN: Which measured melting point value corresponds to COc1cc(NC(C)=O)cc(OC)c1-c1ccc(C[C@H](NC(=O)c2c(Cl)cccc2Cl)C(=O)O)cc1 [Example 159] ?
OUT: 243 to 244 °C

IN: Item COc1ccc(NC(C)=O)c(OC)c1-c1ccc(C[C@H](NC(=O)c2c(Cl)cccc2Cl)C(=O)O)cc1 [Example 325] has what recorded melting point?
OUT: 244 to 245 °C

IN: Any idea what melting point was measured for COc1ccccc1-c1ccc(C[C@H](NC(=O)c2ccc(NC(=S)Nc3ccccc3)cc2Cl)C(=O)O)cc1 [Example 197] ?
OUT: 145 to 146 °C

IN: Item under review: CCOC(=O)[C@H](Cc1ccc(-c2c(OC)cc(CN3CCN(C)CC3)cc2OC)cc1)NC(=O)c1c(F)cccc1F (as salt: HCl) [Example 356] . Reported melting point?
OUT: 226 °C

IN: Tell me the measured melting point of COc1cc(CN2CC[S+]([O-])CC2)cc(OC)c1-c1ccc(C[C@H](NC(=O)c2c(Cl)cccc2Cl)C(=O)O)cc1 [Example 263B] , please.
OUT: 162.8 °C

IN: Using the record for CNc1ccc(C(=O)N[C@@H](Cc2ccc(-c3ccccc3OC)cc2)C(=O)O)c(Cl)c1 , report its melting point.
OUT: 82.8 °C

IN: Query: melting point; subject: COC(=O)Nc1cc(OC)c(-c2ccc(C[C@H](NC(=O)c3c(Cl)cccc3Cl)C(=O)O)cc2)c(OC)c1 [Example 158]
OUT: 235 to 236 °C

IN: Which melting point is listed for CCOC(=O)[C@H](Cc1ccc(-c2c(OC)cc(CN3CCCCC3)cc2OC)cc1)NC(=O)c1c(F)cccc1F [Example 354] ?
OUT: 150 °C
